Origin of the recorded values: paper PMC6053418

Items are presented alongside their recorded Kd.
# system.under.test: CS (CTC1-STN1) (Homo sapiens, UniProt Q2NKJ3;Q9H668 1-1217;1-368)
# Sequence (Q2NKJ3 whole entry, chain 1 of 2): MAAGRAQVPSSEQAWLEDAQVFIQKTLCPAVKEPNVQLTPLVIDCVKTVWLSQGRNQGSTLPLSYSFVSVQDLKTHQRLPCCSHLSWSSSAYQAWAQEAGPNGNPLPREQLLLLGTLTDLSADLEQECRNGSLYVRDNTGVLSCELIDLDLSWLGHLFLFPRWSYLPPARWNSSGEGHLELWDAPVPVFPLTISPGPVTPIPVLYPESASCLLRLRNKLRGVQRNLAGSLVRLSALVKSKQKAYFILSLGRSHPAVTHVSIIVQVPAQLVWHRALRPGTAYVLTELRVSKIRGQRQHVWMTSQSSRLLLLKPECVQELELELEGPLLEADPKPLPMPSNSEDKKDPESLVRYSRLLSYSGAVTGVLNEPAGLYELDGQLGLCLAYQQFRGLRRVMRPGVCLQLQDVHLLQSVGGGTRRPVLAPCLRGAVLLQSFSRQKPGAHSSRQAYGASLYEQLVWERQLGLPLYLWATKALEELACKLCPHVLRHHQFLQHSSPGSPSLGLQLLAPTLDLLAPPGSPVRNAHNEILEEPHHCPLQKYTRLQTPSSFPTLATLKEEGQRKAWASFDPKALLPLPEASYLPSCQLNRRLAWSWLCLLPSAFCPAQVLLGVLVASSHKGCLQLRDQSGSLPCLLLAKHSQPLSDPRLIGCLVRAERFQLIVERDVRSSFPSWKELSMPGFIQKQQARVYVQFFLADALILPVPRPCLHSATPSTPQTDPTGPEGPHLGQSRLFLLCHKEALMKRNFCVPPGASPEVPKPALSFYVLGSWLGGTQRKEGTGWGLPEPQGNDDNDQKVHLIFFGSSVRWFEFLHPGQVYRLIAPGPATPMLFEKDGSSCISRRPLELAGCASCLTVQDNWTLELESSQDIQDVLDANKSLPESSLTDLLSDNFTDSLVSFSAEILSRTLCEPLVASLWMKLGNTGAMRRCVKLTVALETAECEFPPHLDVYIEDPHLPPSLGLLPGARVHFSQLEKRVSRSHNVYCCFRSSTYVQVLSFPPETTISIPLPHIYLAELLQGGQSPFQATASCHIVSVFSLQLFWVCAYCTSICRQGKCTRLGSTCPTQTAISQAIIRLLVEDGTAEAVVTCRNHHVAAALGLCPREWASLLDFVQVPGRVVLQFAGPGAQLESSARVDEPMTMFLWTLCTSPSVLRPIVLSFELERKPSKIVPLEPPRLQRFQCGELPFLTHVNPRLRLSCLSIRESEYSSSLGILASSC
# Sequence (Q9H668 whole entry, chain 2 of 2): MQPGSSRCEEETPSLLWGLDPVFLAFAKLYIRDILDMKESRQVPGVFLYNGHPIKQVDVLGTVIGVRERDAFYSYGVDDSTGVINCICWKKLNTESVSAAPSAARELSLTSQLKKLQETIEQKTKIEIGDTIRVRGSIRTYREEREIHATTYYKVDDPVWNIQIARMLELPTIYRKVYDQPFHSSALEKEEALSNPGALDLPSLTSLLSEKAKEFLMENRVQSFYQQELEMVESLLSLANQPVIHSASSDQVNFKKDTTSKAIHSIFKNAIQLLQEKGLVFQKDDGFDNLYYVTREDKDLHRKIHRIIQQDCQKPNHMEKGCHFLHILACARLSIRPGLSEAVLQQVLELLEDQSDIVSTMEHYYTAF
# protocol.summary: EMSA; apparent Kd; EMSA: 25 mM Tris-HCl pH 8.0, 100 mM NaCl, 1 mM DTT; 0.1 nM DNA, 30 min RT (Kd(app): 0.01 nM DNA, 18 h, 4 °C). smFRET: 25 mM Tris-HCl pH 8.0, 150 mM NaCl, 1 mM D
# assay.setup: protein: recombinant; tags: FLAG-CTC1, FLAG-STN1; copies: 1;1; label: 32P
Report only the number, with the unit pM understood.

Lookup: Report Kd for GGTTAGGGTTAGGGTTAGGGTTAGGGTTAGGGTTAG (ssDNA) [Tel-36] please.
Found: 330

Lookup: And then AGCGTATCCGTTCAGTTGAGCGTATCCGTTCAGTTGAGCGTATCCGTT (ssDNA) [NonTel-48] , what is it?
Found: 80

Lookup: And then GGTTAGGGTTAGGGTTAG (ssDNA) [Tel-18] , what is it?
Found: 1040
